In this section we review reported pKd values for a set of binders.
biological target: T1, human IFN-ω (human, UniProt P05000 24-195); experiment: ProteOn, one antigen concentration
T1 construct: also called interferon omega
Would you please state pKd, meaning minus log10 of the concentration in mol/L, as a bare number?

IFWM3349 (antibody, V domains shown, VH IFWH624, VL IFWL1007; converted mAb; also called IFWB3084) VH: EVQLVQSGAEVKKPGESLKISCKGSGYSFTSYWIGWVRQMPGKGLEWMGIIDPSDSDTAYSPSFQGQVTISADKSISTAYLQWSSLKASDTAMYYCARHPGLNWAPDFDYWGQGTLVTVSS VL: DIQMTQSPSSLSASVGDRVTITCRASQSIGKSLNWYQQKPGKAPKLLIYFASSLQSGVPSRFSGSGSGTDFTLTISSLQPEDFATYYCQQSYDFPLTFGQGTKVEIK    11.15
IFWM3359 (antibody, V domains shown, VH IFWH624, VL IFWL1047; converted mAb; also called IFWB3094) VH: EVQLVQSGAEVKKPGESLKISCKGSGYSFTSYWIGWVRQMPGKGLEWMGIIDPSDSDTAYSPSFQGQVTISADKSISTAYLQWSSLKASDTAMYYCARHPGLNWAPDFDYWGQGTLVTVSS VL: DIQMTQSPSSLSASVGDRVTITCRASQSINGVLNWYQQKPGKAPKLLIYFASSLQSGVPSRFSGSGSGTDFTLTISSLQPEDFATYYCQQSHDFPLTFGQGTKVEIK    10.68

Return the recorded pKd value; entry: IFWM3322 (antibody, V domains shown, VH IFWH591, VL IFWL1051; converted mAb; also called IFWB3057) VH: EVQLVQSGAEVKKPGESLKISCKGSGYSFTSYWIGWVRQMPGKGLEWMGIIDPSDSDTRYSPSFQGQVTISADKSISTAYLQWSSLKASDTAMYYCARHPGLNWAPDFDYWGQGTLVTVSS VL: DIQMTQSPSSLSASVGDRVTITCRASQSIADFLNWYQQKPGKAPKLLIYFASSLQSGVPSRFSGSGSGTDFTLTISSLQPEDFATYYCQQSHSFPLTFGQGTKVEIK
10.40

Return the recorded pKd value; entry: IFWM3351 (antibody, V domains shown, VH IFWH624, VL IFWL1010; converted mAb; also called IFWB3086) VH: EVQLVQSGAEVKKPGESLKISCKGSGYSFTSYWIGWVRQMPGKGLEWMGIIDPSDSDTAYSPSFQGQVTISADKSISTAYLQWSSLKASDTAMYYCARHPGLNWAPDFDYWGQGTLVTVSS VL: DIQMTQSPSSLSASVGDRVTITCRASQSIDGALNWYQQKPGKAPKLLIYFASSLQSGVPSRFSGSGSGTDFTLTISSLQPEDFATYYCQQSFDFPLTFGQGTKVEIK
11.40

Return the recorded pKd value; entry: IFWM3304 (antibody, V domains shown, VH IFWH591, VL IFWL997; converted mAb; also called IFWB3039) VH: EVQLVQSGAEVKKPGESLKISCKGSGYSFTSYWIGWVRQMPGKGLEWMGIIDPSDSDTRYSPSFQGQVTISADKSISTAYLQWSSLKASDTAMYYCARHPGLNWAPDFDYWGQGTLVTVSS VL: DIQMTQSPSSLSASVGDRVTITCRASQSIGSALNWYQQKPGKAPKLLIYFASSLQSGVPSRFSGSGSGTDFTLTISSLQPEDFATYYCQQSYDFPLTFGQGTKVEIK
10.49

The values you see were collected from patent US20150368338A1.
